biological target: ObiH (Pseudomonas fluorescens); assay: UV-vis titration of quinonoid at […] nm
Sequence (A0A1X9LWZ7 1-440): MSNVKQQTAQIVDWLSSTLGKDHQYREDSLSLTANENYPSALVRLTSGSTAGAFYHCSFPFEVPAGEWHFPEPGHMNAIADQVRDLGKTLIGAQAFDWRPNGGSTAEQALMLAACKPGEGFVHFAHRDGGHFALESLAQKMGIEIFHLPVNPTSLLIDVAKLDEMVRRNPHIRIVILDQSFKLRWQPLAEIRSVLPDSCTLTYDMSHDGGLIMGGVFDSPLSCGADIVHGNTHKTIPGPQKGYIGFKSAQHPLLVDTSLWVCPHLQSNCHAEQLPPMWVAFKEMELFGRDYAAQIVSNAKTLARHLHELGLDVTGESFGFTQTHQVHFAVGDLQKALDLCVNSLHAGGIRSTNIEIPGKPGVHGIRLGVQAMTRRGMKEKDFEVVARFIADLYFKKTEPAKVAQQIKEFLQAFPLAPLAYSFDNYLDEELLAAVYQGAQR
ATTRIBUTE_MEASURED: pKd
Answers are plain numbers, as −log10 of the molar value.

Value lookup for pKd; key = CC=O [acetaldehyde]
3.37
